Cited source: the Human Domainome abundance scans (Beltran et al. 2025)

# abundance fitness per entry
B1: CD2-associated protein, residues 109 to 169; numbered along this chain, Q9Y5K6 (parent)
chain: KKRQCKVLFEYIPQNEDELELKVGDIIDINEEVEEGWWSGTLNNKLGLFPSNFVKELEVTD

Variants of: B1
Test: abundance fitness (aPCA) (normalised: wild type 0, dead -1); higher = more abundant; growth selection in yeast, the domain comes from the species named
Conditions: Homo sapiens
Give your answer as a number; write no unit.

MUTANT DESIGNATION: T41W
abundance fitness: 0.016

Which abundance fitness is reported for this variant? `I29R`
-0.678

Which abundance fitness is reported for this variant? `S51G`
-0.35

Which abundance fitness is reported for this variant? `E34V`
-0.05

Which abundance fitness is reported for this variant? `E58S`
-0.035

Which abundance fitness is reported for this variant? `G40S`
-0.92

Which abundance fitness is reported for this variant? `E56I`
-0.225

Which abundance fitness is reported for this variant? `I26L`
-0.245

Which abundance fitness is reported for this variant? `E31A`
-0.052

Which abundance fitness is reported for this variant? `S39Q`
-0.217

Which abundance fitness is reported for this variant? `F53L`
-0.157

Which abundance fitness is reported for this variant? `S51P`
-0.429

Which abundance fitness is reported for this variant? `W38H`
-0.679

Which abundance fitness is reported for this variant? `S39N`
-0.25

Which abundance fitness is reported for this variant? `K45C`
-0.065

Which abundance fitness is reported for this variant? `W37V`
-0.255

Which abundance fitness is reported for this variant? `T41F`
-0.274

Which abundance fitness is reported for this variant? `I27M`
-0.716

Which abundance fitness is reported for this variant? `F49K`
-0.524

Which abundance fitness is reported for this variant? `S51L`
-0.366

Which abundance fitness is reported for this variant? `I29S`
-0.737

Which abundance fitness is reported for this variant? `E32T`
-0.094
